Measured GI50, listed per entry for reference.
# Tested on: SK-MEL-28 melanoma
# Assay: NCI tumour cell line growth inhibition, 48 h
Metric: GI50

{"Molecule": "N#CSCc1c(Cl)cccc1Cl", "Experimental System": "SK-MEL-28 melanoma", "Value Reported": "9.16 µM"}
{"Molecule": "O=C(NC(=S)NNC(=S)NNc1ccccc1)c1ccccc1", "Experimental System": "SK-MEL-28 melanoma", "Value Reported": "10.6 µM"}
{"Molecule": "CCOC(=O)Cn1c(C)c(/C=N/NC(=O)c2cc3c(ccc4ccccc43)o2)c2ccccc21", "Experimental System": "SK-MEL-28 melanoma", "Value Reported": "1.66 µM"}
{"Molecule": "O=Cc1ccc(Oc2c3ccccc3nc3occc23)cc1", "Experimental System": "SK-MEL-28 melanoma", "Value Reported": "17.9 µM"}
{"Molecule": "CC1(C)N=C(N)N=C(N)N1c1cccc(CCCCc2ccccc2)c1", "Experimental System": "SK-MEL-28 melanoma", "Value Reported": "0.894 µM"}
{"Molecule": "Cc1cc2c3ccccc3ccc2[n+]2ccccc12", "Experimental System": "SK-MEL-28 melanoma", "Value Reported": "3.07 µM"}
{"Molecule": "COc1cc2ccnc3c2c(c1OC)-c1ccc(=O)ccc1-3", "Experimental System": "SK-MEL-28 melanoma", "Value Reported": "23.7 µM"}
{"Molecule": "C[C@]12CCC3c4ccc(O)cc4CCC3C1Cc1ccc(O)cc12 (stereo partly drawn)", "Experimental System": "SK-MEL-28 melanoma", "Value Reported": "8.72 µM"}
{"Molecule": "O=C1c2ccccc2-c2n[nH]c3cccc1c23", "Experimental System": "SK-MEL-28 melanoma", "Value Reported": "49.3 µM"}
{"Molecule": "COc1ccc(-c2cc(-c3cn[nH]c3-c3ccccn3)ccn2)cc1", "Experimental System": "SK-MEL-28 melanoma", "Value Reported": "> 25 µM"}
{"Molecule": "CO/N=C(/COc1c(-c2ccccc2)oc2ccccc2c1=O)c1ccc(OC)cc1", "Experimental System": "SK-MEL-28 melanoma", "Value Reported": "> 100 µM"}
{"Molecule": "O=C(OCC1OC(OC(=O)c2cc(O)c(O)c(OC(=O)c3cc(O)c(O)c(O)c3)c2)C(OC(=O)c2cc(O)c(O)c(OC(=O)c3cc(O)c(O)c(O)c3)c2)C(OC(=O)c2cc(O)c(O)c(OC(=O)c3cc(O)c(O)c(O)c3)c2)C1OC(=O)c1cc(O)c(O)c(OC(=O)c2cc(O)c(O)c(O)c2)c1)c1cc(O)c(O)c(OC(=O)c2cc(O)c(O)c(O)c2)c1 (stereo not drawn)", "Experimental System": "SK-MEL-28 melanoma", "Value Reported": "> 50 µM"}
{"Molecule": "COc1ccc(/C=C/C(=O)c2ccc3cc(OC)c(OC)cc3c2)cc1OC", "Experimental System": "SK-MEL-28 melanoma", "Value Reported": "11.2 µM"}
{"Molecule": "CO[C@H]1C[C@@H]2CC[C@@H](C)[C@@](O)(O2)C(=O)C(=O)N2CCCC[C@H]2C(=O)O[C@H]([C@H](C)C[C@@H]2CC[C@@H](OP(C)(C)=O)[C@H](OC)C2)CC(=O)[C@H](C)/C=C(\\C)[C@@H](O)[C@@H](OC)C(=O)[C@H](C)C[C@H](C)/C=C/C=C/C=C/1C", "Experimental System": "SK-MEL-28 melanoma", "Value Reported": "11 µM"}
{"Molecule": "Nc1ncnc2c(C3OC(CO)C(O)C3O)scc12 (stereo not drawn)", "Experimental System": "SK-MEL-28 melanoma", "Value Reported": "1.2 µM"}
{"Molecule": "ICCC(c1ccccc1)(c1ccccc1)c1ccccc1", "Experimental System": "SK-MEL-28 melanoma", "Value Reported": "3.4 µM"}
{"Molecule": "COc1cc2nc(N3CCCC3)nc(Nc3ccccc3)c2cc1OC", "Experimental System": "SK-MEL-28 melanoma", "Value Reported": "1.76 µM"}
{"Molecule": "CCN(C(=O)CCl)C(C)(C)C(SSSC(c1ccc(Cl)cc1)C(C)(C)N(CC)C(=O)CCl)c1ccc(Cl)cc1 (stereo not drawn)", "Experimental System": "SK-MEL-28 melanoma", "Value Reported": "2.05 µM"}
